System: Fibroblast
experimental_protocol: Multiplex assay against human fibroblast
Format: toxicity, cell-based
test_conditions: 12 h, 10 µM, compound concentration 10 uM, replicate 2
Here, each record is paired with measured Population Hoechst High Intensity Objects (%) data.
experimental_readout: Population Hoechst High Intensity Objects (%)

[[record]]
molecule = "CN(C)c1ccnc2sc3c(=O)n(N4CCCCCC4)cnc3c12"
u = "%"
result = 7

[[record]]
molecule = "N#Cc1c(N)nc(SCc2csc(-c3ccc(Cl)cc3)n2)c(C#N)c1-c1ccc(OCCO)cc1 [CAPADENOSON]"
u = "%"
result = 8

[[record]]
molecule = "COc1c(C)cc(NC(=O)c2nn(Cc3ccc(F)cc3)c3c2CN(C(=O)c2ccc[nH]2)C[C@]3(C)C(N)=O)cc1C"
u = "%"
result = 2

[[record]]
molecule = "CN1CCN2c3ncccc3Cc3ccccc3C2C1 (stereo not drawn) [MIRTAZAPINE]"
u = "%"
result = 6

[[record]]
molecule = "Cc1ccc(F)cc1C(=O)Nc1ccc(C(=O)N2Cc3cccn3Cc3ccccc32)c(Cl)c1 [LIXIVAPTAN]"
u = "%"
result = 5

[[record]]
molecule = "CCNC1(C(N)=O)CCN(c2ncnc3c2nc(-c2ccccc2Cl)n3-c2ccc(Cl)cc2)CC1 [OTENABANT]"
u = "%"
result = 3

[[record]]
molecule = "CN1CCN(c2nc3cc(C(F)(F)F)ccc3n3cccc23)CC1.O=C(O)/C=C\\C(=O)O.O=C(O)/C=C\\C(=O)O"
u = "%"
result = 4

[[record]]
molecule = "CSCC[C@H](NC=O)C(=O)N[C@@H](CC(C)C)C(=O)N[C@@H](Cc1ccccc1)C(=O)O"
u = "%"
result = 38


====

Tested on: U2OS
experimental_protocol: Multiplex assay against U2OS
Format: toxicity, cell-based
test_conditions: human, 12 h, 1 µM, compound concentration 1 uM, replicate 1
Here, each record is paired with measured Population Tubulin-Different-Phenotype (%) data.
experimental_readout: Population Tubulin-Different-Phenotype (%)

[[record]]
compound = "CC[C@H]1OC(=O)[C@H](C)[C@@H](O[C@H]2C[C@@](C)(OC)[C@@H](O)[C@H](C)O2)[C@H](C)[C@@H](O[C@@H]2O[C@H](C)C[C@H](N(C)C)[C@H]2O)[C@@]2(C)CC(C)=C(O2)[C@H](C)[C@@H](O)[C@]1(C)O"
result = "25%"

[[record]]
compound = "CCCC(CCC)C(=O)O"
result = "8%"

[[record]]
compound = "Cl.Clc1ccc2nsnc2c1NC1=NCCN1 [TIZANIDINE HYDROCHLORIDE]"
result = "2%"

[[record]]
compound = "N#Cc1c(N)nc(SCc2csc(-c3ccc(Cl)cc3)n2)c(C#N)c1-c1ccc(OCCO)cc1"
result = "10%"

[[record]]
compound = "O=S(=O)(c1ccccc1)c1cnc2c(N3CCNCC3)cccc2c1 [INTEPIRDINE]"
result = "4%"

[[record]]
compound = "CN(C)c1ccnc2sc3c(=O)n(N4CCCCCC4)cnc3c12"
result = "2%"

[[record]]
compound = "C[C@H]1[C@H]2CC[C@H]3[C@@H]4CC=C5C[C@@H](N(C)C)CC[C@]5(C)[C@H]4CC[C@]23CN1C"
result = "2%"

[[record]]
compound = "Cc1ccccc1C(=O)Nc1ccc(C(=O)N2CCCC(N(C)C)c3ccccc32)cc1.Cl (stereo not drawn)"
result = "4%"


Just for reference, ChEMBL document CHEMBL5058577 is where these values come from.
